Numbers sourced from patent US20250034275A1.

Biological target: T1, human Trop-2 (on the surface of human cell lines) (human, UniProt P09758 27-323)
T1 construct: Endogenous Trop-2 on NCI-H322, Capan-1, PC-3, HUVEC, OVCAR-3, HCC38 and HCC1806 cells; also called TACSTD2
T1 sequence: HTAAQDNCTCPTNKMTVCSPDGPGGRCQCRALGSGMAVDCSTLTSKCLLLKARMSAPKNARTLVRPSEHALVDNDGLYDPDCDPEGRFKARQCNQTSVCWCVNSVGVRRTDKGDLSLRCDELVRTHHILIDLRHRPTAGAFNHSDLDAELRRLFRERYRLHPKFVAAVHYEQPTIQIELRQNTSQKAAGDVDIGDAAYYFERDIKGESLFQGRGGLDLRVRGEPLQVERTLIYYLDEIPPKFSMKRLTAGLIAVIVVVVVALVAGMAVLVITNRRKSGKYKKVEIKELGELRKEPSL
Experiment: flow cytometry, HCC1806 cells
Protocol: Tumor cells expressing Trop-2 were prepared into a cell suspension (0.5-1×10⁶ cells/mL) using the FACS buffer (Miltenyi Biotec, 130-091-221), and the cell suspension was added to a 96-well V-bottom plate at 100 μL/well. After centrifugation and removal of the supernatant, the test antibodies diluted with the FACS buffer to different concentrations (0.006 nM-100 nM) were each added at 50 μL/well. The mixture was incubated in the dark in a 4° C. refrigerator for 1 h. […]
Overview of reported EC50 across a group of binders:
Express it in nM; write the number only.

Recorded EC50 (binder ch-Ab21 (antibody, human IgG1, kappa, V domains shown, Mouse VH/VL on human IgG1 and human kappa constant regions; also called chimeric antibody of Ab21) VH: EVQLKQSGPGLVQPSQSLSITCTVSGFSLRNYGVHWVRQSPGKGLEWLGVIWSSGTTDYNAAFISRLSITKDNSKSQVFFKMNSLQVDDTAIYNCARDGDYDYYTMDYWGQGTSVTVSS VL: AIVLTQSPASLAVSLGQRATISCRASKSVSTSAYSYIHWYQQKPGQPPKLLIYLTSNLESGVPARFSGSGSGTDFTLNIHPVEEEDAATYYCQHSRELPYTFGGGTKLEIKR ): 0.65

Recorded EC50 (binder hz-Ab2-2.4 (antibody, human IgG1, kappa, V domains shown, Humanized antibody) VH: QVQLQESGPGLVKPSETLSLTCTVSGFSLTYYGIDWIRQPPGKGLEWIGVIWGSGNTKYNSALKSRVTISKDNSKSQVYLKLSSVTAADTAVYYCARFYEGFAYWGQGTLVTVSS VL: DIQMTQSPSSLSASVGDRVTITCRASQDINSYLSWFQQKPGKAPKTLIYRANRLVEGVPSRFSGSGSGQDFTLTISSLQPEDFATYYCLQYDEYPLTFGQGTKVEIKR ): 1.23

Now look at this one.
Recorded EC50 (binder hz-Ab2-1.4 (antibody, human IgG1, kappa, V domains shown, Humanized antibody) VH: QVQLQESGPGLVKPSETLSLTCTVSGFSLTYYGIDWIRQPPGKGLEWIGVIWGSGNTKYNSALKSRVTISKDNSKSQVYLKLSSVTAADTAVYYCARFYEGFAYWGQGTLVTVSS VL: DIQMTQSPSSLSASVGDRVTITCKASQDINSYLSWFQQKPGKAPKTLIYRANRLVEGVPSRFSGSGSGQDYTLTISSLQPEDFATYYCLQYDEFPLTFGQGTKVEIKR ): 1.07
